test: reversal of MRP1-mediated doxorubicin resistance, pilot screen, H69AR cells, doxorubicin co-treatment (AID 601); conditions: H69AR cells + 2 uM doxorubicin, CellTiter-Glo, 72 h; at 10 µM; active compounds read high
readout: differential viability (reversal) (%)
Reply numerically in %, unit not repeated.

Below are worked cases with known answers.
compound	readout	unit	assay-value
CCOC(=O)c1ccc(-n2c(=O)[nH]c3ccccc3c2=O)cc1	differential viability (reversal)	%	2.73
COc1ccc(Oc2nc(Oc3ccc(OC)cc3)nc(Oc3ccc(OC)cc3)n2)cc1	differential viability (reversal)	%	6.92
O=C(NCC1CCCO1)c1ccccc1-c1nc(-c2ccc(Cl)cc2)no1 (stereo not drawn)	differential viability (reversal)	%	6.99
COC(=O)c1c(O)ccc(Oc2ccccc2)c1C(=O)OC	differential viability (reversal)	%	-1.09
CCN(CC)CCN1C(=O)C(O)=C(C(=O)c2cccs2)C1c1ccccn1 (stereo not drawn)	differential viability (reversal)	%	18.6

Attention now shifts to the item below.
Entry under test: `C/C(N)=C(/C#N)C(=O)COC(=O)CCSc1ccccc1` . Its differential viability (reversal) was -0.045

====

experiment: growth suppression of beta-catenin knockout HCT116, pilot screen, human colon tumor cells (AID 823); details: CellTiter-Glo, 60 h, at 10 µM, active compounds read low;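 further: 0% = wells killed by 20 µM Hyamine and 100% = untreated DMSO cell wells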
Results filed as inconclusive are left out.
readout: viability (%)
Reply numerically in %, unit not repeated.

compound	unit	assay-value
CCOCCOC(=O)C1=C(C)NC2=C(C(=O)CC(c3cccs3)C2)C1c1ccsc1 (stereo not drawn)	%	93.5
COc1ccc(CC(=O)N2CC3(C)CC2CC(C)(C)C3)cc1OC (stereo not drawn)	%	92.7
O=C(Nc1ccc(N2CCCC2)c(Cl)c1)c1ccc(Br)o1	%	78.2
CCOc1ccccc1CNC(=O)c1cc2occc2n1C	%	95.2
CN1CCN(Cc2ccc(-c3ccc(Cl)cc3)o2)CC1	%	86.1
Cc1ccc(C)c(S(=O)(=O)Nc2ccc(O)cc2)c1	%	101

Entry under test: `COc1ccccc1C(=O)Nc1cc(-c2nn3c(C)nnc3s2)ccc1C` . Its viability was 114

Entry under test: CCc1ccc(C2N(c3ccc(OC)cc3)C(=O)C3CCCN32)cc1 (stereo not drawn) . Its viability was 95.3

====

assay: viability gain of MRP-1-high H69AR cells under doxorubicin, pilot screen, MRP-1 activator project, CellTiter-Glo, duplicate (AID 807); conditions: H69AR viability with doxorubicin, CellTiter-Glo luminescence; at 10 µM; active compounds read high;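 further: compound pretreatment 18-22 h then 72 h combined with doxorubicin; 0% = doxorubicin alone and 100% = vehicle without doxorubicin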
readout: viability increase (%)
Reply numerically in %, unit not repeated.

Below are worked cases with known answers.
compound	unit	viability increase
CN1CCN(Cc2ccc(OCc3ccccc3)cc2)CC1	%	-2.45
c1ccc(-c2csc3nnc(SCc4ccc5c(c4)OCO5)n23)cc1	%	-2.01
CC1=C(C(=O)OCc2ccc3c(c2)OCO3)C(c2ccc(Cl)cc2)NC(=O)N1 (configuration not stated)	%	-4.91

Entry under test: `COCCn1c(CN(C)Cc2ccccc2)nc2c1c(=O)n(C)c(=O)n2C` . Its viability increase was 0.55

Entry under test: `CP(=O)(COC(=O)c1ccccc1)COC(=O)c1ccccc1` . Its viability increase was -0.63

Entry under test: CN(Cc1ccco1)C(=O)C(Cc1ccccc1)NS(=O)(=O)c1ccc2c(c1)CCC(=O)N2 (configuration not stated) . Its viability increase was -4.4

Entry under test: `COc1ccc(S(=O)(=O)N(CCc2ccccc2)CC(=O)N2CCOCC2)cc1` . Its viability increase was -4.39

Attribution: PubChem BioAssay
